Values compiled from patent US20250230147A1.

Biological target: c-Cbl (Homo sapiens (Human))
Sequence (P22681 47-435): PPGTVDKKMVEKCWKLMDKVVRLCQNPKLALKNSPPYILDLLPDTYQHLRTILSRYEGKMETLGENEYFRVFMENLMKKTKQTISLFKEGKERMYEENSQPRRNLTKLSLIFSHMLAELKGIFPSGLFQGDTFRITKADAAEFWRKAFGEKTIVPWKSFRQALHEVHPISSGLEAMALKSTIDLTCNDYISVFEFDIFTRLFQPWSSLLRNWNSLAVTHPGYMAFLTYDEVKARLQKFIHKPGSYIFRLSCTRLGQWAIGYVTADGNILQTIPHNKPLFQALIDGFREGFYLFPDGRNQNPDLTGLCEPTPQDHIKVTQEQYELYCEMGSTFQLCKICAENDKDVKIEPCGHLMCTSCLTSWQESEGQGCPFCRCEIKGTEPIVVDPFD
Experiment: C-Cbl LCK Ub TR-FRET assay (c-cbl Lck HTRF)
Type: biochemical
Structures can show the parent of a compound that is named as a salt.
// IC50 lookup, one value per entry
Give the number; nM is assumed, so skip it.

                                   molecule                   measured_on  property_name  output_unit  test_result
0  Cn1cnnc1[C@@H](F)C1(c2cccc(N3Cc4c(cc(CN5CCC5)cc4C(F)(F)F)C3=O)c2)COC1  c-Cbl (Homo sapiens (Human))           IC50           nM          400

Problem: So what IC50 did Cn1cnnc1CC1(c2cccc(N3Cc4c(cc(CN)cc4C(F)(F)F)C3=O)c2)COC1 [Compound 66, formate] get with c-Cbl (Homo sapiens (Human))?
Result: 100

Problem: Find the measured IC50: item "Cc1cccc2c1CN(c1cccc(C3([C@@H](F)c4nncn4C)COC3)c1)C2=O" , target or system c-Cbl (Homo sapiens (Human)).
Result: 2100

Problem: Which IC50 is reported with c-Cbl (Homo sapiens (Human)) for this entry: "CCCC1(O)CN(Cc2cc3c(c(C(F)(F)F)c2)CN(c2cccc(C4([C@H](F)c5nncn5C)COC4)c2)C3=O)C1" ?
Result: 520

Problem: Report IC50 for "CCCNCc1cc2c(c(C(F)(F)F)c1)CN(c1cc(NC(C)C)cc(C3(Cc4nncn4C)CCC3)c1)C2=O" tested on c-Cbl (Homo sapiens (Human)).
Result: 7.6

Problem: For the record "Cc1ccnn1CC1(c2cccc(N3Cc4c(cc(CN5CCN(C)C[C@@H]5C(C)C)cc4C(F)(F)F)C3=O)c2)COC1" , what value of IC50 is listed for c-Cbl (Homo sapiens (Human))?
Result: 59

Problem: // lookup IC50 | system=c-Cbl (Homo sapiens (Human)) | key= CC(C)[C@H]1CN(C)CCN1Cc1cc2c(c(C(F)(F)F)c1)CN(c1cccc([C@]3([C@@H](F)c4nncn4C)CCO3)c1)C2=O (single isomer, unassigned)
Result: 150

Problem: # value lookup — system c-Cbl (Homo sapiens (Human)), readout IC50, item "CC(C)Nc1cc(N2Cc3c(cc(CN4CCN(C)C[C@@H]4C(C)C)cc3C(F)(F)F)C2=O)cc(C2(Cc3nncn3C)CCC2)c1"
Result: 9.1

Problem: Under c-Cbl (Homo sapiens (Human)): IC50 value of "Cn1cnnc1C(F)(F)C1(c2cccc(N3Cc4c(cc(CNC5(C)CCC5)cc4C(F)(F)F)C3=O)c2)COC1" ?
Result: 43

Problem: What reported IC50 corresponds to "Cn1cnnc1[C@H](F)C1(c2cccc(N3Cc4c(cc(CN5CC(C)(O)C5)cc4C(F)(F)F)C3=O)c2)COC1" on c-Cbl (Homo sapiens (Human))?
Result: 110

Problem: Could you share what IC50 was measured for Cl.Cn1cnnc1CC1(c2cc(NCc3ccncc3)nc(N3Cc4c(cc(CNC5(C)CCC5)cc4C(F)(F)F)C3=O)c2)CCC1 [Compound 380, hydrochloride] , tested on c-Cbl (Homo sapiens (Human))?
Result: 99

Problem: Form field - read-out: IC50; system: c-Cbl (Homo sapiens (Human)); submitted item: "CC(C)[C@H]1CN(Cc2cc3c(c(C(F)(F)F)c2)CN(c2cccc(C4([C@@H](F)c5nncn5C)COC4)c2)C3=O)CCN1"
Result: 58

Problem: Form: Entry = CCn1cnnc1C(F)C1(c2cccc(N3Cc4c(cc(CN5CCN(C)C[C@@H]5C(C)C)cc4C(F)(F)F)C3=O)c2)CC(F)(F)C1 (some centres unmarked) | System = c-Cbl (Homo sapiens (Human)) | IC50 = ____
Result: 29

Problem: Report IC50 for "CC(=O)Nc1cc(C2(Cc3nncn3C)CCC2)cc(N2Cc3c(cc(CN4CCN(C)C[C@@H]4C(C)C)cc3C(F)(F)F)C2=O)n1" tested on c-Cbl (Homo sapiens (Human)).
Result: 1200

Problem: Lab note: need IC50 for CN1CCN(Cc2cc3c(c(C(F)(F)F)c2)CN(c2cccc(C4(Cc5nncn5C)CC(F)(F)C4)c2)C3=O)CC1C1CC1 (centres unmarked) on c-Cbl (Homo sapiens (Human)), anyone have it?
Result: 45

Problem: Report IC50 for "Cc1cnnn1CC1(c2cccc(N3Cc4c(cc(CNC5(C)CCC5)cc4C(F)(F)F)C3=O)c2)COC1" tested on c-Cbl (Homo sapiens (Human)).
Result: 47

Problem: Item: "C=CCNc1cc(C2(Cc3nncn3C)CCC2)cc(N2Cc3c(cc(CN4CCN(C)C[C@@H]4C(C)C)cc3C(F)(F)F)C2=O)n1" Test system: c-Cbl (Homo sapiens (Human)) Read-out: IC50 Value: ?
Result: 7

Problem: Observed IC50 on c-Cbl (Homo sapiens (Human)) for "CN1CCN(Cc2cc3c(c(C(F)(F)F)c2)CN(c2cccc(C4(Cc5nncn5C)CC(F)(F)C4)c2)C3=O)C(=O)C1" , please.
Result: 180

Problem: Give the reported IC50 for "Cn1cnnc1[C@H](F)C1(c2cccc(N3Cc4c(cc(CN5CC6(C5)CC6(F)F)cc4C(F)(F)F)C3=O)c2)COC1" (system: c-Cbl (Homo sapiens (Human))).
Result: 60

Problem: Checklist item: IC50 tested on c-Cbl (Homo sapiens (Human)), entry "Cn1cnnc1CC1(c2cccc(N3Cc4c(cc(CNCC5(C)CC5)cc4C(F)(F)F)C3=O)c2)CC(F)(F)C1" , value?
Result: 6.7

Problem: Any idea what IC50 came out for "CCOc1cc(C2(Cc3nncn3C)COC2)cc(N2Cc3c(cc(CNC4(C)CCC4)cc3C(F)(F)F)C2=O)n1" on c-Cbl (Homo sapiens (Human))?
Result: 7.9

Problem: # get_value(readout= IC50, system= c-Cbl (Homo sapiens (Human))) for "Cn1cnnc1CC1(c2cccc(N3Cc4c(cc(CN5CC(C)(F)C5)cc4C(F)(F)F)C3=O)c2)CC(F)(F)C1"
Result: 19
